# run.description: Sigma receptor binding was determined by labeling with radioligand [3H](+)-pentazocine on frozen membranes obtained from frozen guinea pig brain
observed.property: pIC50
Value format note: pIC50 is -log10 of concentration (mol/L); just state the number.

Solved entries:
compound | pIC50
Fc1ccc(C(OCCN2CCN(CCCc3ccco3)CC2)c2ccc(F)cc2)cc1 | 7.21
Fc1ccc(C(OCCN2CCN(C/C=C/c3ccco3)CC2)c2ccc(F)cc2)cc1 | 7.37
Fc1ccc(C(OCCN2CCN(C/C=C/c3ccccc3)CC2)c2ccc(F)cc2)cc1 | 7.29

The value of pIC50 measured for the molecule Fc1ccc(C(OCCN2CCN(CCCc3cccnc3)CC2)c2ccc(F)cc2)cc1 turned out to be 7.10

The value of pIC50 measured for the molecule Fc1ccc(C(OCCN2CCN(C/C=C/c3cccnc3)CC2)c2ccc(F)cc2)cc1 turned out to be 7.23

The value of pIC50 measured for the molecule Fc1ccc(C(OCCN2CCN(CCCc3cccs3)CC2)c2ccc(F)cc2)cc1 turned out to be 7.42

The value of pIC50 measured for the molecule Fc1ccc(C(OCCN2CCN(C/C=C/c3cccs3)CC2)c2ccc(F)cc2)cc1 turned out to be 7.39
